pIC50 values for the molecules below.
- System name: P2X7 receptor (Homo sapiens, UniProt Q99572)
- Sequence (Q99572 1-595): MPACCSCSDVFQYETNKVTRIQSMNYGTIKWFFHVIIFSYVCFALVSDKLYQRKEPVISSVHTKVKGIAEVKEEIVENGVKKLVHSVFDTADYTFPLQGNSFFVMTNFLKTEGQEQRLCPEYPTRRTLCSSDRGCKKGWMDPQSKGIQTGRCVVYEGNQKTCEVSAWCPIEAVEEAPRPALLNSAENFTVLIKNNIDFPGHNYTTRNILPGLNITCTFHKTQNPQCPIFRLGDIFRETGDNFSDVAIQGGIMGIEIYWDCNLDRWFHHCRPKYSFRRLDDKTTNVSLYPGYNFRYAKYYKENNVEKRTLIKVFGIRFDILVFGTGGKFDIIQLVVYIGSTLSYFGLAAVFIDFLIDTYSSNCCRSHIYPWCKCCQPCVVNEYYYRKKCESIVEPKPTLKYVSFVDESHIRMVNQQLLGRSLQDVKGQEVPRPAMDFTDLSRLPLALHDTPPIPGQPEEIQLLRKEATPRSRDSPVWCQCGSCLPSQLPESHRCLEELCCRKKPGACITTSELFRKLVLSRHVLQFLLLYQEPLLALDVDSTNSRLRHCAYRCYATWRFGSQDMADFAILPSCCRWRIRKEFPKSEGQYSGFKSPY
- Assay overview: IL-1β release assay in differentiated THP-1 cells (Example 9)
- Test conditions: THP-1 cells differentiated with LPS and IFN-γ; 30 min pretreatment; BzATP 250 uM; IL-1β by ELISA
- Experimental: THP-1 cells (ATCC Cat #285-IF-100) are plated in 96 well plates at a concentration of 200,000 cells per well and allowed to differentiate in RPMI-1640 media (ATCC Cat #30-2001) containing 10% FBS, 100 IU/mL penicillin, 100 ug/mL streptomycin, 100 ng/mL LPS and 100 ng/mL IFN-γ for 16 hours. […] 30 uL of cell supernatant is then collected and IL-1β levels are determined via ELISA (R&D systems Cat. # HSLB50) according to manufacturer's recommendations using a Tecan Safire plate reader. […]
pIC50: −log10 of the molar value.

Chemical smiles: Cc1ccc2c(=O)n([C@H](C)CN3CC(O)C3)ccc2c1NC(=O)Cc1ccc(C(F)(F)F)c(F)c1
pIC50: 8.05
--
Chemical smiles: Cc1ccc2c(=O)n([C@H](C)CO)ccc2c1NC(=O)CC1CCCCCC1
pIC50: 8.05
--
Chemical smiles: Cc1ccc2c(=O)n([C@H](C)CO)ccc2c1NC(=O)Cc1cccc(C(F)(F)F)c1F
pIC50: 7.96
